- ASSAYED SYSTEM: Acyl-protein thioesterase 1 (Homo sapiens, UniProt O75608)
- Sequence (O75608 whole entry): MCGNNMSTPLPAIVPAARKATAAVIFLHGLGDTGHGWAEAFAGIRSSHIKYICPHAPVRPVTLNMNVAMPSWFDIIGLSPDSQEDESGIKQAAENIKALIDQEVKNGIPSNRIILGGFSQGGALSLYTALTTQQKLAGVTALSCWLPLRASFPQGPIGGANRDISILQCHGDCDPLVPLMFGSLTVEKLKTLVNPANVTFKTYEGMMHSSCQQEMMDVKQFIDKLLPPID
EXPERIMENTAL READOUT: pIC50
To interpret pIC50, take it as minus log10 of a concentration measured in moles per litre.

## Task pIC50 lookup needed for CCCCCCCCCC[C@@H]1C(=O)O[C@H]1CCc1ccc(OC)c(OC)c1 [PALMOSTATIN B] , thanks.
## Result 6.17
